Molecular target: Enolase 1 (ENO1) C399A (Homo sapiens, UniProt P06733, C399A)
Construct: recombinant human ENO1-C399A, pET28a, His-tag
Sequence (P06733 2-434 C399A): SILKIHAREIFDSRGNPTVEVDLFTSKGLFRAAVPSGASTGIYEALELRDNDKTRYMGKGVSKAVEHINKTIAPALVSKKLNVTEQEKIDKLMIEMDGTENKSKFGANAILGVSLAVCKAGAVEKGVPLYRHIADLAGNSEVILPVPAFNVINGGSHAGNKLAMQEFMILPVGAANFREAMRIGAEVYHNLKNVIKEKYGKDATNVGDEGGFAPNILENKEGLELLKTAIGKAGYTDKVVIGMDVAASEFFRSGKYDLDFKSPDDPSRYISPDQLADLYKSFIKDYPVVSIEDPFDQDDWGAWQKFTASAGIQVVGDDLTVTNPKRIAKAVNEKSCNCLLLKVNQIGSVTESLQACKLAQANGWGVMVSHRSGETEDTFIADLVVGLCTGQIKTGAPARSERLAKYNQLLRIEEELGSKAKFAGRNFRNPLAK
Assay: MicroScale Thermophoresis with purified mutant ENO1
pKd: −log10 of the molar value.
Value type: pKd

>>> readout_value("O=C(/C=C/c1ccc(O)c(O)c1)O[C@@H]1C[C@](O)(C(=O)O)C[C@@H](O)[C@H]1O [CGA, Chlorogenic acid]")
3.89
